System: E. coli DH5α cells
assay notes: Inhibition of bacterial cell growth by CPPs (Max OD600 relative to control)
Assay type: cell-based, Escherichia coli
experimental setup: E. coli DH5α diluted 1/1000 in LB, 5 μg TAMRA-CPP (0.1 μg/μL), OD600 monitored 18 h; max OD of treated cells / max OD of control cells; replicate 2
Method: E. coli DH5α cells were grown until OD600 = 1 at 37 °C with shaking at 200 rpm. […] Then, cell growth (OD600) was monitored for 18 h by using the Synergy^TM H1 hybrid multi-mode microplate reader (BioTek, Vermont, USA). As a control, we used E. coli cells that were not treated with CPPs.
Where no end group is shown, it is not given here.
We begin with a simple list: items and their reported Max OD (%) (Figure 3f).
Numbers only; they are read as %.

| substance | Max OD (%) (Figure 3f) |
| --- | --- |
| Rev(34-50) (TRQARRNRRRRWRERQR; also: TAMRA label, site not given here) [CPP 15, TAMRA-labeled CPP of the 98-CPP library, one of five used to evaluate delivery methods] | 73.4005 |

Req: Which Max OD (%) (Figure 3f) value belongs to R9-TAT (GRRRRRRRRRPPQ; also: TAMRA label, site not given here) [CPP 14, TAMRA-labeled CPP of the 98-CPP library, one of five used to evaluate delivery methods] ?
Resp: 63.2803

Req: Which Max OD (%) (Figure 3f) value belongs to TatsMTS (TMG) (GRKKRRQRRRMVSAL; also: TAMRA label, site not given here) [CPP 71, TAMRA-labeled CPP of the 98-CPP library] ?
Resp: 87.9958

Req: Which Max OD (%) (Figure 3f) value belongs to ppTG1 (GLFKALLKLLKSLWKLLLKA; also: TAMRA label, position not given here) [CPP 16, TAMRA-labeled CPP of the 98-CPP library, one of five used to evaluate delivery methods] ?
Resp: 69.0965

###

System: E. coli DH5α cells
assay notes: Penetration efficiency of TAMRA-labeled CPPs, chemical (CaCl2) treatment method, flow cytometry
Type: cell-based, Escherichia coli
experimental setup: 50 mM CaCl2-treated E. coli DH5α, 5 × 10^7 cells/50 μL, 5 μg TAMRA-CPP, distilled water, 1 h, replicate 1
Where no end group is shown, it is not given here.
We begin with a simple list: items and their reported Cell penetration efficiency (TAMRA fluorescence), Chemical (CaCl2) method - DW.
Note: state the figure and append the unit.

| substance | target system | reported measurement |
| --- | --- | --- |
| Penetratin (RQIKIWFPNRRMKWKK; also: TAMRA label, site not given here) [CPP 17, TAMRA-labeled CPP of the 98-CPP library, one of five used to evaluate delivery methods] | E. coli DH5α cells | 134.244 A.U. |

Req: Which Cell penetration efficiency (TAMRA fluorescence), Chemical (CaCl2) method - DW value belongs to R9-TAT (GRRRRRRRRRPPQ; also: TAMRA label, site not given here) [CPP 14, TAMRA-labeled CPP of the 98-CPP library, one of five used to evaluate delivery methods] ?
Resp: 1405.86 A.U.

Req: Which Cell penetration efficiency (TAMRA fluorescence), Chemical (CaCl2) method - DW value belongs to ppTG1 (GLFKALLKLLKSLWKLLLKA; also: TAMRA label, position not given here) [CPP 16, TAMRA-labeled CPP of the 98-CPP library, one of five used to evaluate delivery methods] ?
Resp: 201.023 A.U.

Req: Which Cell penetration efficiency (TAMRA fluorescence), Chemical (CaCl2) method - DW value belongs to Rev(34-50) (TRQARRNRRRRWRERQR; also: TAMRA label, site not given here) [CPP 15, TAMRA-labeled CPP of the 98-CPP library, one of five used to evaluate delivery methods] ?
Resp: 228.73 A.U.

###

System: E. coli DH5α cells
assay notes: Inhibition of bacterial cell growth by CPPs (Max OD600 relative to control)
Format: cell-based, Escherichia coli
experimental setup: class (Cytotoxic / Safe), cutoff of 50%
Procedure: E. coli DH5α cells were grown until OD600 = 1 at 37 °C with shaking at 200 rpm. […] Then, cell growth (OD600) was monitored for 18 h by using the Synergy^TM H1 hybrid multi-mode microplate reader (BioTek, Vermont, USA). As a control, we used E. coli cells that were not treated with CPPs.
Where no end group is shown, it is not given here.
metric: Anti-bacterial activity

| substance | Anti-bacterial activity |
| --- | --- |
| ppTG1 (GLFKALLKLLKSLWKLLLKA; also: TAMRA label, position not given here) [CPP 16, TAMRA-labeled CPP of the 98-CPP library, one of five used to evaluate delivery methods] | Safe |
| R9-TAT (GRRRRRRRRRPPQ; also: TAMRA label, site not given here) [CPP 14, TAMRA-labeled CPP of the 98-CPP library, one of five used to evaluate delivery methods] | Safe |
| CTP (GGRRARRRRRR; also: TAMRA label, site not given here) [CPP 96, TAMRA-labeled CPP of the 98-CPP library] | Safe |
| Rev(34-50) (TRQARRNRRRRWRERQR; also: TAMRA label, site not given here) [CPP 15, TAMRA-labeled CPP of the 98-CPP library, one of five used to evaluate delivery methods] | Safe |
| Tat (GRKKRRQRRRPPQRKC; also: TAMRA label, site not given here) [CPP 67, TAMRA-labeled CPP of the 98-CPP library] | Safe |

Req: Which Anti-bacterial activity value belongs to Tat49-57 (RKKRRQRRR; also: TAMRA label, site not given here) [CPP 45, TAMRA-labeled CPP of the 98-CPP library] ?
Resp: Safe

Req: Which Anti-bacterial activity value belongs to TatsMTS (TMG) (GRKKRRQRRRMVSAL; also: TAMRA label, site not given here) [CPP 71, TAMRA-labeled CPP of the 98-CPP library] ?
Resp: Safe

Req: Which Anti-bacterial activity value belongs to Tat48-57 (GRKKRRQRRR; also: TAMRA label, site not given here) [CPP 70, TAMRA-labeled CPP of the 98-CPP library] ?
Resp: Safe

###

System: E. coli DH5α cells
assay notes: Penetration efficiency of TAMRA-labeled CPPs, electroporation-based method, flow cytometry
Format: cell-based, Escherichia coli
experimental setup: electrocompetent E. coli DH5α, 5 μg TAMRA-CPP, electroporation 1.8 kV, distilled water, 1 h, replicate 3
Where no end group is shown, it is not given here.
We begin with a simple list: items and their reported Cell penetration efficiency (TAMRA fluorescence), Electrooration - DW.
Note: state the figure and append the unit.

Here are 2 substances together with their reported answers.
| substance | reported measurement |
| --- | --- |
| R9-TAT (GRRRRRRRRRPPQ; also: TAMRA label, site not given here) [CPP 14, TAMRA-labeled CPP of the 98-CPP library, one of five used to evaluate delivery methods] | 728.231 A.U. |
| ppTG1 (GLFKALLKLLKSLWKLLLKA; also: TAMRA label, position not given here) [CPP 16, TAMRA-labeled CPP of the 98-CPP library, one of five used to evaluate delivery methods] | 302.379 A.U. |

Req: Which Cell penetration efficiency (TAMRA fluorescence), Electrooration - DW value belongs to Penetratin (RQIKIWFPNRRMKWKK; also: TAMRA label, site not given here) [CPP 17, TAMRA-labeled CPP of the 98-CPP library, one of five used to evaluate delivery methods] ?
Resp: 471.96 A.U.

Req: Which Cell penetration efficiency (TAMRA fluorescence), Electrooration - DW value belongs to Rev(34-50) (TRQARRNRRRRWRERQR; also: TAMRA label, site not given here) [CPP 15, TAMRA-labeled CPP of the 98-CPP library, one of five used to evaluate delivery methods] ?
Resp: 564.956 A.U.

###

Tested on: E. coli DH5α cells
assay notes: Inhibition of bacterial cell growth by CPPs (Max OD600 relative to control)
Format: cell-based, Escherichia coli
experimental setup: E. coli DH5α diluted 1/1000 in LB, 5 μg TAMRA-CPP (0.1 μg/μL), OD600 monitored 18 h; max OD of treated cells / max OD of control cells; replicate 1
Where no end group is shown, it is not given here.
metric: Max OD (%) (Figure 3f)
Numbers only; they are read as %.

Here are 2 substances together with their reported answers.
| substance | target system | Max OD (%) (Figure 3f) |
| --- | --- | --- |
| Tat48-57 (GRKKRRQRRR; also: TAMRA label, site not given here) [CPP 70, TAMRA-labeled CPP of the 98-CPP library] | E. coli DH5α cells | 81.1065 |
| R9-TAT (GRRRRRRRRRPPQ; also: TAMRA label, site not given here) [CPP 14, TAMRA-labeled CPP of the 98-CPP library, one of five used to evaluate delivery methods] | E. coli DH5α cells | 76.3087 |

Below: the item to evaluate.
Req: Which Max OD (%) (Figure 3f) value belongs to ppTG1 (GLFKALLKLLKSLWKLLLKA; also: TAMRA label, position not given here) [CPP 16, TAMRA-labeled CPP of the 98-CPP library, one of five used to evaluate delivery methods] ?
Resp: 61.1865
